Here's what we have: pIC50 numbers for Acetylcholinesterase (Homo sapiens).
Numbers only, as −log10 of the molar value.

COc1ccc(/C=C/c2nc(-c3ccc(OC)cc3)cs2)cc1
3.71

API: the following record is the query input.
I have this compound here, Brc1ccc(-c2csc(/C=C/c3ccccc3)n2)cc1 , and I need its recorded pIC50. 3.64
